Source: patent US20240270821A1

- Study target: T1, human GIP receptor (human) (UniProt P48546)
- T1 sequence (looked up): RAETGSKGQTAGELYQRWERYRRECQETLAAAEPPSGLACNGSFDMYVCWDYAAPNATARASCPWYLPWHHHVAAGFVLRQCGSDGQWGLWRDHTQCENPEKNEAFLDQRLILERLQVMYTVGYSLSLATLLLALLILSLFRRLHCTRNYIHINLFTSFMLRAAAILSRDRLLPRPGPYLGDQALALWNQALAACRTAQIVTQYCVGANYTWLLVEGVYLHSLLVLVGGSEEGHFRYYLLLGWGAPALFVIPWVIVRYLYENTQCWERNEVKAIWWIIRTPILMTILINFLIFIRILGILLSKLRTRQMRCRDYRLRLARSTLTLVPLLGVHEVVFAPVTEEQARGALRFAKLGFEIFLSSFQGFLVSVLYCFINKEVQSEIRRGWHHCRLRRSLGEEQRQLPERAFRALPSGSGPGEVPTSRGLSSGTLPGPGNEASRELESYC
- Experiment notes: cell-based or functional assay
Field: label. Allowed values: t (Relative cAMP EC50 < 0.1 nM) or f (Relative cAMP EC50 >= 0.1 nM).

>  <Binder>
YXQGTXTSDXXIXLDXKAQXEFIEXLVEGGPSSGEPPPSGE (synthetic construct; SITE 2: note = 2-Aminoisobutyric Acid; SITE 6: note = alpha-methyl-2-fluoro-L-phenylalanine; SITE 10: note = 3-(4-Pyridyl)-L-alanine; SITE 11: note = alpha-methyl-L-serine; SITE 13: note = alpha-methyl-leucine; SITE 16: note = L-ornithine; SITE 17: note = Lysine is chemically mo) [Example 750]

>  <Assigned class>
t

$$$$
>  <Binder>
YXQGTFTSDFSKXLDKKAQXAFIEYLLAGGPSSGAPPPSSG (Aib, αMeL, acylated K, C-terminal amide; synthetic construct; SITE 2: note = 2-Aminoisobutyric Acid; SITE 13: note = alpha-methyl-leucine; SITE 17: note = Lysine is chemically modified through conjugation of the epsilon-amino group of the Lysine side chain with (2-[2-(2-Amino-ethoxy)-ethoxy]-acetyl)-(gamma-Glu)-CO-(CH2) 18-CO2H; SITE 20: n) [Example 13]

>  <Assigned class>
f

$$$$
>  <Binder>
YXQGTFTSDFSKXLDKKAQXAFIEWLIEGGPSSGAPPPSEG (Aib, αMeL; lysine acylated; C-terminal amide; synthetic construct; SITE 2: note = 2-Aminoisobutyric Acid; SITE 13: note = alpha-methyl-leucine; SITE 17: note = Lysine is chemically modified through conjugation of the epsilon-amino group of the Lysine side chain with (2-[2-(2-Amino-ethoxy)-ethoxy]-acetyl)-(gamma-Glu)-CO-(CH2) 18-CO2H; SITE 20: n) [Example 40]

>  <Assigned class>
f

$$$$
>  <Binder>
YXQGTXTSDYSILLDKKAQXXFIEYLEEGGPSSGAPPPS (synthetic construct; SITE 2: note = 2-Aminoisobutyric Acid; SITE 6: note = alpha-methyl-2-fluoro-L-phenylalanine; SITE 17: note = Lysine is chemically modified through conjugation of the epsilon-amino group of the Lysine side chain with (gamma-Glu)2-CO-(CH2)16-CO2H; SITE 20: note = 2-Aminoisobutyric) [Example 415]

>  <Assigned class>
t

$$$$
>  <Binder>
YXQGTXTSDXSIXLDKKAQXAFIEYLAEGGPSSGEPPPSGSEE (non-natural residues; acylated Lys; C-terminal amide; synthetic construct; SITE 2: note = 2-Aminoisobutyric Acid; SITE 6: note = alpha-methyl-2-fluoro-L-phenylalanine; SITE 10: note = 3-(4-Pyridyl)-L-alanine; SITE 13: note = alpha-methyl-leucine; SITE 17: note = Lysine is chemically modified through conjugation of the epsilon-amino group of the Lysine) [Example 631]

>  <Assigned class>
t

$$$$
>  <Binder>
YXQGTFTSDFSXXLDKKAQXAFIEYLLEXGPSSXAPPPSGS (Aib, Orn, αMeL, lipidated Lys, C-terminal amide; synthetic construct; SITE 2: note = 2-Aminoisobutyric Acid; SITE 12: note = L-ornithine; SITE 13: note = alpha-methyl-leucine; SITE 17: note = Lysine is chemically modified through conjugation of the epsilon-amino group of the Lysine side chain with (2-[2-(2-Amino-ethoxy)-ethoxy]-acetyl)-(gamma-Glu)) [Example 238]

>  <Assigned class>
t

$$$$
>  <Binder>
YXQGTFTSDFSKXLDKKAQXAFIEYLLEGGPSSGEPPPGEGX (synthetic construct; SITE 2: note = 2-Aminoisobutyric Acid; SITE 13: note = alpha-methyl-leucine; SITE 17: note = Lysine is chemically modified through conjugation of the epsilon-amino group of the Lysine side chain with (2-[2-(2-Amino-ethoxy)-ethoxy]-acetyl)-(gamma-Glu)-CO-(CH2) 18-CO2H; SITE 20: n) [Example 54]

>  <Assigned class>
f

$$$$
>  <Binder>
YXQGTXTSDYSIXLDXKAQXAFIEYLLEGGPSSGAPPPSEG (synthetic construct; SITE 2: note = 2-Aminoisobutyric Acid; SITE 6: note = alpha-methyl-2-fluoro-L-phenylalanine; SITE 13: note = alpha-methyl-leucine; SITE 16: note = L-ornithine; SITE 17: note = Lysine is chemically modified through conjugation of the epsilon-amino group of the Lysine side chain w) [Example 404]

>  <Assigned class>
t

$$$$
>  <Binder>
YXQGTFTSDFSXXLDKKAQXAFIEYLLAGGPSSGAPPPSEG (synthetic construct; SITE 2: note = 2-Aminoisobutyric Acid; SITE 12: note = L-ornithine; SITE 13: note = alpha-methyl-leucine; SITE 17: note = Lysine is chemically modified through conjugation of the epsilon-amino group of the Lysine side chain with (2-[2-(2-Amino-ethoxy)-ethoxy]-acetyl)-(gamma-Glu)) [Example 60]

>  <Assigned class>
f

$$$$
